test system: Escherichia coli TOP10; assay: shrunken log2 fold change of peptide-encoding DNA abundance (4.5 h post-induction vs induction); higher = less antimicrobial activity (less host growth inhibition); conditions: time post-induction: 4.5 h; library: site-saturation at positions 5, 18, 19, 20
Binning scheme for shrunken log2 fold change: class 0 (below -0.3), class 1 (-0.3 to below -0.08), class 2 (-0.08 or more)

[[record]]
ordered_residues = "RRIRKRPPRLPRPRPRPHDGPRP"
class_label = "class 2"

[[record]]
ordered_residues = "RRIRERPPRLPRPRPRPYSRPRP"
class_label = "class 1"

[[record]]
ordered_residues = "RRIRERPPRLPRPRPRPIDCPRP"
class_label = "class 0"

[[record]]
ordered_residues = "RRIRHRPPRLPRPRPRPAAQPRP"
class_label = "class 1"

[[record]]
ordered_residues = "RRIRSRPPRLPRPRPRPFDRPRP"
class_label = "class 1"

[[record]]
ordered_residues = "RRIRQRPPRLPRPRPRPCPCPRP"
class_label = "class 0"

[[record]]
ordered_residues = "RRIRGRPPRLPRPRPRPSMYPRP"
class_label = "class 2"

[[record]]
ordered_residues = "RRIRWRPPRLPRPRPRPRREPRP"
class_label = "class 2"

[[record]]
ordered_residues = "RRIRNRPPRLPRPRPRPDMKPRP"
class_label = "class 0"

[[record]]
ordered_residues = "RRIRKRPPRLPRPRPRPHAGPRP"
class_label = "class 2"

[[record]]
ordered_residues = "RRIRDRPPRLPRPRPRPQGGPRP"
class_label = "class 1"

[[record]]
ordered_residues = "RRIRKRPPRLPRPRPRPSTGPRP"
class_label = "class 1"

[[record]]
ordered_residues = "RRIRYRPPRLPRPRPRPHHSPRP"
class_label = "class 0"

[[record]]
ordered_residues = "RRIRHRPPRLPRPRPRPVSNPRP"
class_label = "class 1"


---

Listed here: items and their measured shrunken log2 fold change.
system: Escherichia coli TOP10; test: shrunken log2 fold change of peptide-encoding DNA abundance (4.5 h post-induction vs induction); higher = less antimicrobial activity (less host growth inhibition); settings: time post-induction: 4.5 h; library: site-saturation at positions 5, 18, 19, 20;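 further: peptides expressed intracellularly from a pBAD plasmid library in pooled LB shake-flask culture, induced with 0.3% L-arabinose, DNA abundance read by NGS, three biological replicates, DESeq2 with apeglm shrinkage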
PROPERTY: shrunken log2 fold change

[[record]]
ordered_residues = "RRIRARPPRLPRPRPRPIWTPRP"
data_value = -0.144

[[record]]
ordered_residues = "RRIRWRPPRLPRPRPRPLPSPRP"
data_value = 0.515

[[record]]
ordered_residues = "RRIRMRPPRLPRPRPRPMAMPRP"
data_value = 0.0319

[[record]]
ordered_residues = "RRIRDRPPRLPRPRPRPASAPRP"
data_value = 0.616

[[record]]
ordered_residues = "RRIRERPPRLPRPRPRPGREPRP"
data_value = 0.241

[[record]]
ordered_residues = "RRIRPRPPRLPRPRPRPKFEPRP"
data_value = 0.319

[[record]]
ordered_residues = "RRIRYRPPRLPRPRPRPMKNPRP"
data_value = -0.191

[[record]]
ordered_residues = "RRIRARPPRLPRPRPRPYPGPRP"
data_value = 0.0384

[[record]]
ordered_residues = "RRIRFRPPRLPRPRPRPKYNPRP"
data_value = -0.978

[[record]]
ordered_residues = "RRIRYRPPRLPRPRPRPNHWPRP"
data_value = -0.4

[[record]]
ordered_residues = "RRIRQRPPRLPRPRPRPHNQPRP"
data_value = -0.644

[[record]]
ordered_residues = "RRIRGRPPRLPRPRPRPVIPPRP"
data_value = 0.000617

[[record]]
ordered_residues = "RRIRERPPRLPRPRPRPIIMPRP"
data_value = -0.119

[[record]]
ordered_residues = "RRIRDRPPRLPRPRPRPMWFPRP"
data_value = 0.0563

[[record]]
ordered_residues = "RRIRCRPPRLPRPRPRPWTQPRP"
data_value = -0.12

